Test system: Escherichia coli (E. Co)
Assay method text: Minimal inhibitory concentration, E. coli
Assay type: cell-based
Ends that are not written are not given here.
Entries and their measured minimal inhibitory concentration (MIC) E. Co follow.
Measured quantity: minimal inhibitory concentration (MIC) E. Co

Substance: R-G-G-G-L-C-Y-A-R-K-G-F-A-V-C-V-G-R (RGGGLCYARKGFAVCVGR-NH2; cysteine pairing not given here) [IB-227]
Measurement target: Escherichia coli (E. Co)
Measured value: 2.65
--
Substance: R-G-G-G-L-C-Y-C-R-R-P-F-C-V-C-V-G-R (RGGGLCYCRRPFCVCVGR-NH2; cysteine pairing not given here) [IB-224]
Measurement target: Escherichia coli (E. Co)
Measured value: 0.15
--
Substance: R-G-G-G-L-C-Y-A-R-G-F-I-A-V-C-F-G-R (RGGGLCYARGFIAVCFGR-NH2; not fully specified; printed as R-G-G-G-L-C-Y-A-R-G-F-I-A-V-C-F-G-R; cysteine pairing not given here) [IB-216]
Measurement target: Escherichia coli (E. Co)
Measured value: 3.27
--
Substance: R-G-G-G-L-C-Y-C-R-P-R-F-C-V-C-V-G-R-OH (RGGGLCYCRPRFCVCVGR-OH; cysteine pairing not given here) [IB-324]
Measurement target: Escherichia coli (E. Co)
Measured value: 3.51

----------
Tested on: Escherichia coli (E. Co)
Assay method text: Minimal inhibitory concentration, E. coli
Assay type: cell-based
Ends that are not written are not given here.
Measured quantity: minimal inhibitory concentration (MIC) E. Co

Substance: R-G-G-G-L-C-Y-A-R-G-W-I-A-F-C-V-G-R (RGGGLCYARGWIAFCVGR-NH2; cysteine pairing not given here) [IB-214]
Measurement target: Escherichia coli (E. Co)
Measured value: 0.81
//
Substance: R-G-G-R-L-C-Y-A-R-R-R-F-A-V-C-V-G-R (RGGRLCYARRRFAVCVGR) [IB-289]
Measurement target: Escherichia coli (E. Co)
Measured value: 0.4
//
Substance: R-G-G-R-L-C-Y-A-R-R-R-F-A-V-C-V-G-R-OH (RGGRLCYARRRFAVCVGR-OH; cysteine pairing not given here) [IB-288]
Measurement target: Escherichia coli (E. Co)
Measured value: 0.4
//
Substance: R-G-G-G-L-C-Y-C-R-R-R-F-C-V-C-V-G-R-OH (RGGGLCYCRRRFCVCVGR-OH; cysteine pairing not given here) [IB-249]
Measurement target: Escherichia coli (E. Co)
Measured value: 0.4
//
Substance: R-G-G-R-L-C-Y-C-R-R-R-F-C-V-C-V-G-R-OH (RGGRLCYCRRRFCVCVGR-OH; cysteine pairing not given here) [IB-247]
Measurement target: Escherichia coli (E. Co)
Measured value: 0.6
//
Substance: R-G-G-G-L-C-Y-T-R-P-R-F-T-V-C-V-G-R (RGGGLCYTRPRFTVCVGR-NH2; cysteine pairing not given here) [IB-226]
Measurement target: Escherichia coli (E. Co)
Measured value: 1.53
